Target: rat mGluR5 (Rattus norvegicus, UniProt P31424)
Construct: expressed in transfected cells; host or cells: HEK (human embryonic kidney) cells
Sequence (P31424 21-1203): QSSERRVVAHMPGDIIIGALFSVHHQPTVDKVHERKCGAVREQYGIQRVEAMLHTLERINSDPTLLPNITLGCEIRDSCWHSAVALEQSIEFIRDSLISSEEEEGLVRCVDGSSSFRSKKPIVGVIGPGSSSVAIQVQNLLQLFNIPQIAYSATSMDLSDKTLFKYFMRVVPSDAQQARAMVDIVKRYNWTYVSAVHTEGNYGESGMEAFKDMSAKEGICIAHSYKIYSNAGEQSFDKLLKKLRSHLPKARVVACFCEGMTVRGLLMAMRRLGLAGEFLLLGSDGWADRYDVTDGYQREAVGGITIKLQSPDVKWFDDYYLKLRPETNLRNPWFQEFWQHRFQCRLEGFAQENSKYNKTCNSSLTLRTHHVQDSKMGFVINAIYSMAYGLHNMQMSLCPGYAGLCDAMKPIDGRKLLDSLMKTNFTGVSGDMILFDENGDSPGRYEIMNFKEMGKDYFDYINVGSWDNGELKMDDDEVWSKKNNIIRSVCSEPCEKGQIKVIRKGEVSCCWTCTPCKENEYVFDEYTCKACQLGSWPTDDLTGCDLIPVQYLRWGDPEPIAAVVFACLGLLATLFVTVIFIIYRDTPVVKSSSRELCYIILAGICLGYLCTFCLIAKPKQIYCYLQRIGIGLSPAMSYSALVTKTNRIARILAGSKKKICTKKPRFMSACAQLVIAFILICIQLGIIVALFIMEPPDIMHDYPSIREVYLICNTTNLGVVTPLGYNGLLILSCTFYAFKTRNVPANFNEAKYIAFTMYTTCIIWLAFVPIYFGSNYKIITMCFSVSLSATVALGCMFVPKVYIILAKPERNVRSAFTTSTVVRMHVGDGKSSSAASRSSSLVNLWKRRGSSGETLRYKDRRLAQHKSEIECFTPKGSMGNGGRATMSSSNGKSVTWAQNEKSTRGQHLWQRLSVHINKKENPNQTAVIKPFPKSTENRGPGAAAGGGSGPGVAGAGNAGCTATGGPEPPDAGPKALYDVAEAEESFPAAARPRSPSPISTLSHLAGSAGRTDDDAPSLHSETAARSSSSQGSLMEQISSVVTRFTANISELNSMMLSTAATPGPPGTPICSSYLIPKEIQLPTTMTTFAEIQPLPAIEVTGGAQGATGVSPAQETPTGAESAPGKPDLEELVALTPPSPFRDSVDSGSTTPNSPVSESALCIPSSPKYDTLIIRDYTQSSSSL
Experiment: Potentiation of glutamate response in HEK cells transfected with rat mGluR5 (Ca2+ fluorescence, FDSS)
Format: cell-based
Conditions: HEK cells transfected with rat mGluR5; read-out: rmGlu5 PAM EC50
Test Readout: pEC50
Field pEC50 (float): negative decimal logarithm of the concentration in molar.

>>> experimental_result("C[C@@H](NC(=O)c1ccc(COc2ccc(C#N)cc2)nc1)C1CCCCC1")
5.60
>>> experimental_result("O=C(NC1CCC1)c1ccc(COc2cc(F)cc(F)c2)nc1")
5.47
>>> experimental_result("C[C@@H](NC(=O)c1ccc(COc2cccc(F)c2)nc1)C1CCCCC1 [drawing 74]")
6.76
>>> experimental_result("O=C(NC1CC2CCC1C2)c1ccc(COc2ccccc2)nc1 (stereo not drawn) [drawing 70]")
6.82

Inquiry: Form field: reported pEC50 of "C[C@@H](NC(=O)c1ccc(COc2cccc(F)c2)nc1)C1CC1"
Reply text: 5.97

Inquiry: Here is the next molecule: "COc1cccc(OCc2ccc(C(=O)N[C@H](C)C3CCCCC3)cn2)c1"
Reply text: 5.92

Inquiry: Here is the next molecule: C[C@@H](NC(=O)c1ccc(COc2ccccc2)nc1)C1CCCCC1 [drawing 78]
Reply text: 6.59

Inquiry: Here is the next molecule: O=C(NC1C2CC3CC(C2)CC1C3)c1ccc(COc2ccccc2)nc1 (stereo not drawn)
Reply text: 6.54

Inquiry: Here is the next molecule: "O=C(NC1CCCCC1)c1ccc(COc2cccc(F)c2)nc1"
Reply text: 6.35

Inquiry: Here is the next molecule: C[C@@H](NC(=O)c1ccc(COc2cc(F)cc(F)c2)nc1)C1CCCCC1 [drawing 81]
Reply text: 6.51

###

Molecular target: human mGluR5 (Homo sapiens)
Sequence (P41594 21-1212): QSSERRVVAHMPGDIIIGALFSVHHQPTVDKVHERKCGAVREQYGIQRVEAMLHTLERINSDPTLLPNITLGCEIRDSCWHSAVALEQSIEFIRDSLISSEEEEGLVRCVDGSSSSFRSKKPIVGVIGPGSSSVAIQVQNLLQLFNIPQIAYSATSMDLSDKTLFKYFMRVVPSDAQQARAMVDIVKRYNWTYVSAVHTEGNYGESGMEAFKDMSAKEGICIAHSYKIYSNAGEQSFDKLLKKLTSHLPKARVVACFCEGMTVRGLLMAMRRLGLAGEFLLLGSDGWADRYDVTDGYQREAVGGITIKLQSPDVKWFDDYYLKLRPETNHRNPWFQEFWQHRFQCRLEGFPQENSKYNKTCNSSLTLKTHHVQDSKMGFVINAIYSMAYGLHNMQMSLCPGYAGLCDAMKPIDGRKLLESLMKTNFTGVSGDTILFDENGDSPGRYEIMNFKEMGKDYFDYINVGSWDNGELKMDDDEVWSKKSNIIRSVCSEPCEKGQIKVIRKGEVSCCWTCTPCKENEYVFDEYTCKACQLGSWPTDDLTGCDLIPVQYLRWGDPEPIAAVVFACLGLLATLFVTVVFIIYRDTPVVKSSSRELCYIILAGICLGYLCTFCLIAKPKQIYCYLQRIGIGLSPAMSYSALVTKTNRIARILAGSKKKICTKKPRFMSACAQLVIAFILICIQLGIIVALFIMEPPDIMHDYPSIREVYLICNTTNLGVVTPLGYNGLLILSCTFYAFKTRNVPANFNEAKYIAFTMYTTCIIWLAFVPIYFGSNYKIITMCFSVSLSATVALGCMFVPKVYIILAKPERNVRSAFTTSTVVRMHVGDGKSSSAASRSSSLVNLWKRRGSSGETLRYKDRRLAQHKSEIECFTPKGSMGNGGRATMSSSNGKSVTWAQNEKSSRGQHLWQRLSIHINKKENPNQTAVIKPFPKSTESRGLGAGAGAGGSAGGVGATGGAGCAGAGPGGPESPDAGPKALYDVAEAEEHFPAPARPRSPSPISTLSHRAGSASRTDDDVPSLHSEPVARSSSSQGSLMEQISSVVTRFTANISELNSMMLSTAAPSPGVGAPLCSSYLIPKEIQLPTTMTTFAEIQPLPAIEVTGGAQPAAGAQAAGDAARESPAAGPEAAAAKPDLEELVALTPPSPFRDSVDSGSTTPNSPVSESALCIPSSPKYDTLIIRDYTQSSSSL
Experiment: Potentiation of glutamate response in HEK cells transfected with human mGluR5 (H10H cell line), Ca2+ fluorescence, FDSS
Conditions: read-out: hmGluR5 EC50 (H10H cell line)
Could you please mark True for values of EC50 below 3000 nM and False for values at or above it?

>>> label_class("C[C@@H](NC(=O)c1ccc(COc2cncc(C(F)(F)F)c2)nc1)C(C)(C)C")
"False"

Inquiry: Given "C[C@@H](NC(=O)c1ccc(COc2cncc(Cl)c2)nc1)C(C)(C)C" , is recorded EC50 strictly lower than 3000 nM?
Reply text: False

Inquiry: Here is the next molecule: CC(NC(=O)c1ccc(COc2cccc(F)c2)nc1)C(F)(F)F (stereo not shown)
Reply text: False

Inquiry: Here is the next molecule: "C[C@@H](NC(=O)c1ccc(COc2cncc(F)c2)nc1)C(C)(C)C"
Reply text: False

Inquiry: Here is the next molecule: "C[C@@H](NC(=O)c1ccc(COc2ccnc(Cl)c2)nc1)C(C)(C)C"
Reply text: True

Inquiry: Here is the next molecule: "C[C@@H](NC(=O)c1ccc(COc2ccnc(Cl)c2)nc1)C1CCCCC1"
Reply text: True

Inquiry: Here is the next molecule: "O=C(N[C@H]1C[C@H]2CC[C@@H]1C2)c1ccc(COc2cccc(F)c2)nc1"
Reply text: True

Inquiry: Here is the next molecule: "Cc1cc(OCc2ccc(C(=O)N[C@H](C)C(C)(C)C)cn2)ccn1"
Reply text: False

Inquiry: Here is the next molecule: O=C(NC(c1ccccn1)C(F)(F)F)c1ccc(COc2cccc(F)c2)nc1 (stereo not shown)
Reply text: False

Inquiry: Here is the next molecule: "C[C@@H](NC(=O)c1ccc(COc2cncc(F)c2)nc1)C1CCCCC1"
Reply text: True
